Assay: growth of efflux-deficient E. coli DRC39 – strain DRC39, OD650, 48 h, E. coli filamentation inducers, primary screen (AID 1179);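 also: screen aims at cell division blockers that make cells filament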
Conditions: E. coli DRC39 delta-acrAB growth, higher = more signal, called active from +8 up or from −8 down

COMPOUND: COc1ccc([Si](C)(C)[C@@H]2[C@@H](CC(=O)N(CCO)Cc3ccccc3)O[C@]3(C(=O)N(C)c4c(Br)cc(C)cc43)[C@H]2C)cc1
z-score: -0.75

COMPOUND: O=C1C[C@@](C(=O)NCc2ccccc2)(c2ccc([N+](=O)[O-])cc2)[C@@H](c2ccc(CO)cc2I)N1C1CCCCC1
z-score: -0.0118

COMPOUND: CC(C)NC(=O)[C@@H]1c2ccccc2C(=O)N(Cc2cc(C(F)(F)F)cc(C(F)(F)F)c2)[C@H]1c1ccc(CO)cc1
z-score: 0.393

COMPOUND: COCCCNC(=O)[C@]1(CCS(=O)(=O)c2ccccc2)N=C(c2ccc(OCCCO)cc2)O[C@@H]1c1ccccc1
z-score: 0.607

COMPOUND: COCCOC(=O)N1C(=O)[C@@]2(c3cc(C#Cc4ccc(OC)cc4)ccc31)[C@H](C(=O)N1CCc3cc(OC)c(OC)cc3C1)[C@H]1C(=O)O[C@H](c3ccccc3)[C@H](c3ccccc3)N1[C@@H]2c1ccc(O)cc1
z-score: 0.26

COMPOUND: COC(=O)[C@@]1(Cc2ccc(OC)cc2)[C@H]2c3cc(C(=O)N(C)C)n(Cc4cc(F)c(F)c(F)c4)c3C[C@H]2CN1C(=O)c1ccccc1
z-score: -0.622

COMPOUND: O=C1C2C=CC(C(O)c3cccc4ccccc34)N(Nc3ccccc3)C2C(=O)N1c1ccccc1 (stereo not drawn)
z-score: 0.133

COMPOUND: CCCNC(=O)[C@@H]1c2ccccc2C(=O)N(CC23CC4CC(CC(C4)C2)C3)[C@H]1c1ccc(CO)cc1
z-score: -0.501

COMPOUND: CO[C@H]1O[C@H](CO)[C@@H](OC(=O)c2ccc(Br)cc2)[C@@H]2OC(=O)[C@H](Cc3cccc(Br)c3)C/C=C/C[C@@H](Cc3cccc(Br)c3)C(=O)O[C@@H]12
z-score: 0.188

COMPOUND: COc1ccccc1CN1C(=O)c2ccccc2[C@](Cc2ccccc2I)(C(=O)NCCN2CCOCC2)[C@@H]1c1ccc(CO)cc1
z-score: 0.908

COMPOUND: CCOC(=O)C1=CCC(c2cccc(Cl)c2)O1 (stereo not drawn)
z-score: -0.16

COMPOUND: C[N+](C)(C)CCCCCCNC(=O)[C@H]1C[C@H]2C(=O)N3CCC[C@H]3C(=O)N2[C@H]1c1cccc(OCCO)c1
z-score: -0.271

COMPOUND: [N-]=[N+]=NCc1ccccc1C[C@]1(C(=O)NCCN2CCOCC2)COC(c2ccc(OCCCO)cc2)=N1
z-score: 0.0653

COMPOUND: OCc1ccc(-c2cc[n+](Cc3cccc(OC(F)(F)F)c3)cc2)cc1
z-score: 0.147

COMPOUND: COC(=O)[C@@]1(Cc2ccc(F)cc2)[C@H]2c3cc(C(=O)N4CCCC4)n(Cc4ccccc4)c3C[C@H]2CN1C(=O)c1ccccc1
z-score: -0.406

COMPOUND: C=CCNC(=O)[C@H]1[C@@H]2C(=O)O[C@@H](c3ccccc3)[C@@H](c3ccccc3)N2[C@@H](c2ccc(OCCO)cc2)[C@]12C(=O)N(C(=O)OCCOC)c1ccc(C#CC3=CCCCC3)cc12
z-score: 0.215

COMPOUND: C[C@H]1NC(=O)C([C@@H](C)OCc2ccccc2)NC(=O)[C@@]23C(=O)N[C@@H](Cc4ccccc4)C2[C@H](C)[C@@]2(C)O[C@H]2C3/C=C/CC/C=C/CNC1=O (stereo partly drawn)
z-score: 0.336

COMPOUND: CCOC(=O)C[C@H]1[C@H](OC(=O)c2ccccc2-c2ccccc2)[C@@H](NC(=O)c2ccccc2)c2cc(OCCCO)ccc2N1C(=O)Cc1ccc(OC)cc1
z-score: 0.15

COMPOUND: COCCCNC(=O)[C@@]1(Cc2ccccc2I)c2ccccc2C(=O)N(Cc2ccccc2Cl)[C@H]1c1ccc(CO)cc1
z-score: 0.607

COMPOUND: COCCOC(=O)N1C(=O)[C@@]2(c3cc(C#Cc4ccc(OC)cc4)ccc31)[C@H](C(N)=O)[C@H]1C(=O)O[C@H](c3ccccc3)[C@H](c3ccccc3)N1[C@@H]2c1ccc(OCCO)cc1
z-score: -0.697

COMPOUND: CCOC(=O)C[C@H]1[C@H](OC(=O)Cc2ccc3c(c2)OCO3)[C@@H](NC(=O)c2ccccc2)c2cc(OCCCO)ccc2N1C(=O)c1ccc2ccccc2n1
z-score: 0.88

COMPOUND: C=CCNC(=O)[C@@H]1[C@H]2C(=O)O[C@H](c3ccccc3)[C@H](c3ccccc3)N2[C@H](c2ccc(O)cc2)[C@@]12C(=O)Nc1ccc(C#CCCO)cc12
z-score: -0.582

COMPOUND: CC(C)[Si](C#C[Si](C(C)C)(C(C)C)C(C)C)(O[C@H](C)c1cn(Cc2cccc(Cl)c2)nn1)C(C)C
z-score: 1.52

COMPOUND: CCOC(=O)C[C@H]1[C@H](OC(=O)c2cc3ccccc3oc2=O)[C@@H](NC(=O)c2ccc3ccccc3n2)c2cc(OCCCO)ccc2N1C(=O)c1ccc2ccccc2n1
z-score: 0.627

COMPOUND: O=C1N(CCS(=O)(=O)c2ccccc2)Cc2ccccc2C[C@@]12COC(c1ccc(OCCCO)cc1)=N2
z-score: -0.691

COMPOUND: C/C=C/[C@@H](CCn1cc([C@H](O)c2ccccc2)nn1)[Si](C)(C)c1ccc(OC)cc1
z-score: -0.253

COMPOUND: COC(=O)[C@H]1N=C(c2ccc(OCCCO)cc2)O[C@H]1c1ccccc1CN=[N+]=[N-]
z-score: -0.0456

COMPOUND: C=C(COC)C(=O)CC[C@H](OC(=O)c1ccccc1-c1ccccc1C(=O)O)c1ccc(CO)o1
z-score: -0.399
